Data origin, for the record: patent US20150291610A1

Test system: HCT116/VM46 (vinblastine-resistant strain of HCT116, Pgp over-expression) cells
Assay procedure: Cell growth inhibition assay, HCT116/VM46
Applied conditions: read-out: IC50 (nM) HCT116/VM46; resistant human colon cancer cell line, Pgp over-expression
So basically, if IC50 comes in under 500 nM it's condition met, and if it's 500 nM or more it's condition not met.

These recorded examples may help you get a feel for the data.
>>> classification("CCC1(NC(=O)NC)CC2CN(CCc3c([nH]c4ccccc34)C(C(=O)OC)(c3cc4c(cc3OC)N(C)C3C(O)(C(=O)OC)C(OC(C)=O)C5(CC)C=CCN6CCC43C65)C2)C1 (centres unmarked) [Compound 14]")
"condition not met"
>>> classification("CC[C@]1(NC(=O)NCCc2ccccc2)C[C@@H]2CN(CCc3c([nH]c4ccccc34)[C@@](C(=O)OC)(c3cc4c(cc3OC)N(C)[C@H]3[C@@](O)(C(=O)OC)[C@H](OC(C)=O)[C@]5(CC)C=CCN6CC[C@]43[C@@H]65)C2)C1 [Compound 32]")
"condition not met"

(Q) Hello, is IC50 of the following compound strictly smaller than 500 nM? CC[C@]1(NC(=O)NC(C)(C)C)C[C@@H]2CN(CCc3c([nH]c4ccccc34)[C@@](C(=O)OC)(c3cc4c(cc3OC)N(C)[C@H]3[C@@](O)(C(=O)OC)[C@H](OC(C)=O)[C@]5(CC)C=CCN6CC[C@]43[C@@H]65)C2)C1 [Compound 20]
(A) condition not met

(Q) Hello, is IC50 of the following compound strictly smaller than 500 nM? CCCNC(=O)N[C@@]1(CC)C[C@@H]2CN(CCc3c([nH]c4ccccc34)[C@@](C(=O)OC)(c3cc4c(cc3OC)N(C)[C@H]3[C@@](O)(C(=O)OC)[C@H](OC(C)=O)[C@]5(CC)C=CCN6CC[C@]43[C@@H]65)C2)C1 [Compound 16]
(A) condition met

(Q) Hello, is IC50 of the following compound strictly smaller than 500 nM? CCNC(=O)N[C@@]1(CC)C[C@@H]2CN(CCc3c([nH]c4ccccc34)[C@@](C(=O)OC)(c3cc4c(cc3OC)N(C)[C@H]3[C@@](O)(C(=O)OC)[C@H](OC(C)=O)[C@]5(CC)C=CCN6CC[C@]43[C@@H]65)C2)C1 [Compound 15]
(A) condition met

(Q) Hello, is IC50 of the following compound strictly smaller than 500 nM? CC[C@]1(NC(=O)N2Cc3ccccc3C2)C[C@@H]2CN(CCc3c([nH]c4ccccc34)[C@@](C(=O)OC)(c3cc4c(cc3OC)N(C)[C@H]3[C@@](O)(C(=O)OC)[C@H](OC(C)=O)[C@]5(CC)C=CCN6CC[C@]43[C@@H]65)C2)C1 [Compound 58]
(A) condition met

(Q) Hello, is IC50 of the following compound strictly smaller than 500 nM? CC[C@]1(NC(=O)Nc2ccc(Cl)cc2)C[C@@H]2CN(CCc3c([nH]c4ccccc34)[C@@](C(=O)OC)(c3cc4c(cc3OC)N(C)[C@H]3[C@@](O)(C(=O)OC)[C@H](OC(C)=O)[C@]5(CC)C=CCN6CC[C@]43[C@@H]65)C2)C1 [Compound 25]
(A) condition not met

(Q) Hello, is IC50 of the following compound strictly smaller than 500 nM? CCNC(=O)NC1(CC)CC2CN(CCc3c([nH]c4ccc(F)cc34)C(C(=O)OC)(c3cc4c(cc3OC)N(C)C3C(O)(C(=O)OC)C(OC(C)=O)C5(CC)C=CCN6CCC43C65)C2)C1 (centres unmarked) [Compound 49]
(A) condition met
